target: biotinylated BCL6 (5-129) (Homo sapiens)
measure: Kd

* CNC(=O)COc1cc2cc(Nc3nc(N4CCC(CCN5CCN(CCOc6cccc(Oc7ccc(C(C)(C)O)cc7-c7cn(C)c(=O)c8[nH]ccc78)c6)CC5)CC4)ncc3Cl)ccc2n(C)c1=O [Compound I-24] | 1 to 10 nM
* CCS(=O)(=O)Nc1ccc(Oc2cccc(OCCN3CCN(CC4CCN(c5ncc(Cl)c(Nc6ccc7c(c6)cc(OCC(=O)NC)c(=O)n7C)n5)CC4)CC3)c2)c(-c2cn(C)c(=O)c3[nH]ccc23)c1 [Compound I-4] | > 100 nM
* CCS(=O)(=O)Nc1ccc(Oc2cccc(OCCN3CCN(CCN4CCN(c5ncc(Cl)c(Nc6ccc7c(c6)cc(OCC(=O)NC)c(=O)n7C)n5)CC4)CC3)c2)c(-c2cn(C)c(=O)c3[nH]ccc23)c1 [Compound I-15] | 1 to 10 nM
* CNC(=O)COc1cc2cc(Nc3nc(N4CCN(CCN5CCN(CCOc6cccc(Oc7ccc(C(C)(C)O)cc7-c7cn(C)c(=O)c8[nH]ccc78)c6)CC5)CC4)ncc3Cl)ccc2n(C)c1=O [Compound I-23] | 1 to 10 nM
* CNC(=O)COc1cc2cc(Nc3nc(N4CCN(CCN5CCN(Cc6cccc(Oc7ccc(C(C)(C)O)cc7-c7cn(C)c(=O)c8[nH]ccc78)c6)CC5)CC4)ncc3Cl)ccc2n(C)c1=O [Compound I-47] | 1 to 10 nM
* CNC(=O)COc1cc2cc(Nc3nc(N4CCC(CN5CCN(CC[C@H]6C[C@@H](Oc7ccc(C(C)(C)O)cc7-c7cn(C)c(=O)c8[nH]ccc78)C6)CC5)CC4)ncc3Cl)ccc2n(C)c1=O [Compound I-46] | 1 to 10 nM
* CNC(=O)COc1cc2cc(Nc3nc(N4CCC(CN5CCN(Cc6ccc(Oc7ccc(C(C)(C)O)cc7-c7cn(C)c(=O)c8[nH]ccc78)cc6)CC5)CC4)ncc3Cl)ccc2n(C)c1=O [Compound I-38] | > 100 nM
* CNC(=O)COc1cc2cc(Nc3nc(N4CCC(CC5CN(CC6CC(Oc7ccc(C(C)(C)O)cc7-c7cn(C)c(=O)c8[nH]ccc78)C6)C5)CC4)ncc3Cl)ccc2n(C)c1=O (stereo not drawn) [Compound I-22] | 1 to 10 nM
* CNC(=O)COc1cc2cc(Nc3nc(N4CCCC5(CN(C[C@H]6C[C@H](Oc7ccc(C(C)(C)O)cc7-c7cn(C)c(=O)c8[nH]ccc78)C6)C5)C4)ncc3Cl)ccc2n(C)c1=O [Compound I-41] | 1 to 10 nM
* CNC(=O)COc1cc2cc(Nc3nc(N4CCC(CN5CCN(Cc6cccc(Oc7ccc(C(C)(C)O)cc7-c7cn(C)c(=O)c8[nH]ccc78)c6)CC5)CC4)ncc3Cl)ccc2n(C)c1=O [Compound I-39] | 10 to 100 nM
* CNC(=O)COc1cc2cc(Nc3nc(N4CCC(CCCN5CCN(CCN(C)[C@H]6C[C@H](Oc7ccc(C(C)(C)O)cc7-c7cn(C)c(=O)c8[nH]ccc78)C6)CC5)CC4)ncc3Cl)ccc2n(C)c1=O [Compound I-19] | 1 to 10 nM
* CNC(=O)COc1cc2cc(Nc3nc(N4CCC(N5CCN(Cc6cccc(Oc7ccc(C(C)(C)O)cc7-c7cn(C)c(=O)c8[nH]ccc78)c6)CC5)CC4)ncc3Cl)ccc2n(C)c1=O [Compound I-40] | 10 to 100 nM
